I'd be grateful if you could share measured pIC50 for these entries.
biological target: Cathepsin D (Cat D) (Homo sapiens, UniProt P07339); test: In vitro enzymatic Cathepsin D (Cat D) FRET assay; type: biochemical; conditions: read-out: CatD IC50
Sequence (P07339 65-412, species assumed): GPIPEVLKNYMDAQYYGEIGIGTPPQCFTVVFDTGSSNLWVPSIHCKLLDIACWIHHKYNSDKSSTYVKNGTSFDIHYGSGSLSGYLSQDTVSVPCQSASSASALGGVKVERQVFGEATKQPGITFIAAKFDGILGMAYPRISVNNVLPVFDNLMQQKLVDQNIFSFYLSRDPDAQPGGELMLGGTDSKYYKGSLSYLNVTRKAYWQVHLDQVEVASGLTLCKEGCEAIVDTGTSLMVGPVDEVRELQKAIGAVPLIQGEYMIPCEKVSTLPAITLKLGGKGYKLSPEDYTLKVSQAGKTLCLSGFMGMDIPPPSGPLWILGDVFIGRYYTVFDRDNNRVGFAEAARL
The value called pIC50 is obtained by taking minus log10 of the concentration in mol/L.

Data request: Data request, read-out pIC50, for C[C@]12N=C(N)C3(CCC3)S(=O)(=O)[C@@H]1CCOc1ncc(Nc3nccc4cc(Cl)cnc34)cc12 [Example 61]
Data returned: 3.17

Data request: Data request, read-out pIC50, for COc1cnc2c(Nc3ccc4c(c3)[C@@]3(C)N=C(N)C(C)(C)S(=O)(=O)[C@@H]3C[C@H](C)O4)nccc2n1 [Example 53]
Data returned: 3.01

Data request: Data request, read-out pIC50, for CC1(C)C(N)=N[C@]2(C)c3cc(NC(=O)c4ccc(C(F)(F)F)cn4)ccc3OCC[C@H]2S1(=O)=O [Example 165]
Data returned: 2.97

Data request: Data request, read-out pIC50, for Cc1cc(C#N)cnc1C(=O)Nc1ccc2c(c1)[C@@]1(C)N=C(N)C(C)(C)S(=O)(=O)[C@@H]1C[C@H](C)O2 [Example 57]
Data returned: 2.84

Data request: Data request, read-out pIC50, for Cc1cc(Cl)cnc1C(=O)Nc1ccc2c(c1)[C@@]1(C)N=C(N)C(C)(C)S(=O)(=O)[C@H]1CC(C)(C)O2 [Example 184]
Data returned: 3.39

Data request: Data request, read-out pIC50, for CC1(C)C(N)=N[C@]2(C)c3cc(Nc4ncccc4C#N)ccc3OCC[C@H]2S1(=O)=O [Example 7]
Data returned: 3.60

Data request: Data request, read-out pIC50, for CC1(C)C(N)=N[C@]2(C)c3cc(NC(=O)c4cnc(OCC(F)(F)F)cn4)ccc3OCC[C@H]2S1(=O)=O [Example 169]
Data returned: 2.79

Data request: Data request, read-out pIC50, for Cc1cc(C#N)cnc1C(=O)Nc1cnc2c(c1)[C@@]1(C)N=C(N)C(C)(C)S(=O)(=O)[C@H]1CCO2 [Example 21]
Data returned: 2.85

Data request: Data request, read-out pIC50, for COc1cnc(C(=O)Nc2ccc3c(c2)[C@@]2(C)N=C(N)C(C)(C)S(=O)(=O)[C@@H]2CCO3)cn1 [Example 166]
Data returned: 2.95

Data request: Data request, read-out pIC50, for Cc1cc(Cl)cnc1C(=O)Nc1cnc2c(c1)[C@@]1(C)N=C(N)C(C)(C)S(=O)(=O)[C@H]1CCO2 [Example 20]
Data returned: 3.42

Data request: Data request, read-out pIC50, for Cc1cc(C(F)(F)F)cnc1C(=O)Nc1ccc2c(c1)[C@@]1(C)N=C(N)C(C)(C)S(=O)(=O)[C@@H]1CCC2 [Example 45]
Data returned: 2.83

Data request: Data request, read-out pIC50, for Cc1c(C(=O)Nc2ccc3c(c2)[C@@]2(C)N=C(N)C(C)(C)S(=O)(=O)[C@@H]2C[C@H](C)O3)nc2ccc(Cl)cn12 [Example 77]
Data returned: 3.40

Data request: Data request, read-out pIC50, for CC#C[C@@H](C)Oc1cnc2c(Nc3ccc4c(c3)[C@@]3(C)N=C(N)C(C)(C)S(=O)(=O)[C@@H]3CCO4)ncc(F)c2c1 (single isomer, unassigned) [Example 71]
Data returned: 3.73

Data request: Data request, read-out pIC50, for COc1ccc(C(=O)Nc2ccc3c(c2)[C@@]2(C)N=C(N)C(C)(C)S(=O)(=O)[C@@H]2CCO3)nc1 [Example 185]
Data returned: 3.29

Data request: Data request, read-out pIC50, for Cc1cnc(COc2cnc(C(=O)Nc3ccc4c(c3)[C@@]3(C)N=C(N)C(C)(C)S(=O)(=O)[C@@H]3C[C@H](C)O4)cn2)o1 [Example 80]
Data returned: 2.83

Data request: Data request, read-out pIC50, for Cc1c(C(=O)Nc2ccc3c(c2)[C@@]2(C)N=C(N)C(C)(C)S(=O)(=O)[C@@H]2CCC3)nc2ccc(Cl)cn12 [Example 49]
Data returned: 3.40

Data request: Data request, read-out pIC50, for Cc1cc(Cl)cnc1C(=O)Nc1ccc2c(c1)[C@@]1(C)N=C(N)C(C)(C)S(=O)(=O)[C@@]1(C)CCO2 [Example 26]
Data returned: 3.00

Data request: Data request, read-out pIC50, for C[C@]12N=C(N)C3(CCC3)S(=O)(=O)[C@@H]1CCOc1ncc(NC(=O)c3ccc(C#N)cn3)cc12 [Example 63]
Data returned: 3.06

Data request: Data request, read-out pIC50, for CCCOc1cnc(C(=O)Nc2ccc3c(c2)[C@@]2(C)N=C(N)C(C)(C)S(=O)(=O)[C@@H]2C[C@H](C)O3)cn1 [Example 79]
Data returned: 3.08

Data request: Data request, read-out pIC50, for Cc1nc(OCC(F)(F)F)cnc1C(=O)Nc1ccc2c(c1)[C@@]1(C)N=C(N)C(C)(C)S(=O)(=O)[C@@H]1CCO2 [Example 23]
Data returned: 2.85

Data request: Data request, read-out pIC50, for C[C@H]1C[C@@H]2[C@](C)(N=C(N)C(C)(C)S2(=O)=O)c2cc(NC(=O)c3ncc(C(F)(F)F)cc3Cl)ccc2O1 [Example 73]
Data returned: 2.86
